system: KM-20L2; experiment: NCI tumour cell line growth inhibition, 48 h
The source made the active and inactive calls. Cut-off read from the data, not from the text of the source: active = GI50 up to about 1.1 µM and inactive = higher.
VALUE_KIND: GI50

# COMPOUND, RESULT
data = [
    ("COc1cc(-c2cccs2)sc1-c1cccs1", "26.7 µM (inactive)"),
    ("CC1(C)CC(=O)C(CC2C(=O)c3ccccc3C2=O)C(=O)C1", "> 100 µM (inactive)"),
    ("CCn1c2c(c3ccccc31)[C@@H](c1ccc(Cl)cc1)CC1C(=O)N(c3ccccc3)C(=O)C21 (some centres undefined)", "> 100 µM (inactive)"),
    ("CCOC(=O)C1=C(C)N(NC(N)=O)C2(N)N(NC(N)=O)C(C)=C(C(=O)OCC)C12C(=O)OCC (centres undefined)", "> 100 µM (inactive)"),
    ("CCc1cc(Cc2ccc(C)c(NC(=O)C(=O)C3C(=O)NC(=O)NC3=O)c2CC)cc(C)c1NC(=O)C(=O)C1C(=O)NC(=O)NC1=O", "> 100 µM (inactive)"),
    ("N#CC1=C(N)N2C(=O)/C(=C/c3ccccc3)SC2C(c2nc3ccccc3[nH]2)=C1c1ccccc1 (centres undefined)", "2.75 µM (inactive)"),
    ("Cc1c(/C=N/NC(=O)c2ccccc2)c(=O)n(-c2ccccc2)n1C", "> 100 µM (inactive)"),
    ("COC1=CC(=Nc2c(Cl)cc(Cl)cc2OC(=O)c2ccc([N+](=O)[O-])cc2)C=C(OC)C1=O", "17.7 µM (inactive)"),
    ("c1ccc(COC2(OCc3ccccc3)CC3OC2C2NN=NC32)cc1 (centres undefined)", "54.6 µM (inactive)"),
]

###

tested on: NCI-H522; test: NCI tumour cell line growth inhibition, 48 h
Activity calls are given as the source filed them. Cut-off read from the data, not from the text of the source: active = GI50 up to about 1.1 µM and inactive = higher.
Catalogue of GI50 values

# CHEMICAL_STRUCTURE, GI50
measured = [
    ("Nc1ncc(CN2CCCC2)c(-c2ccccc2O)n1", "> 750 µM (inactive)"),
    ("CCOC(=O)Nc1ccc(C)c(NC(=O)OCC)c1", "> 100 µM (inactive)"),
    ("CC1(C)CCC(C)(C)c2c1ccc(O)c2Cc1c(O)ccc2c1C(C)(C)CCC2(C)C", "1.97 µM (inactive)"),
    ("COCOc1cc(OC)ccc1C/C(=N/O)C(=O)OC", "> 100 µM (inactive)"),
    ("NCCS(=O)(=O)O", "> 100 µM (inactive)"),
    ("CSC1=C(C(=O)Nc2ccc(Cl)cc2)C(N)=NC1=O", "> 100 µM (inactive)"),
    ("COc1c(C)cc2c(C(C)C)c(O)c(O)c(C=O)c2c1O", "25.6 µM (inactive)"),
    ("CN(c1ccc(Cl)cc1)S(=O)(=O)c1cccc([N+](=O)[O-])c1", "65.5 µM (inactive)"),
]

###

test system: A498; test: NCI tumour cell line growth inhibition, 48 h
The source made the active and inactive calls. Rule as the data show it: active = GI50 up to about 1.1 µM and inactive = higher.
Labels: Yes = active, No = inactive

# MOLECULE, ASSIGNED_LABEL
records = [
    ("Cc1cc(Cl)ccc1NC1=NC(=O)C(CC(=O)Nc2cccc(Cl)c2)S1 (configuration not stated)", "No"),
    ("COC(=O)C1CCC(=O)N1C(=O)Cc1ccc(OC)cc1 (configuration not stated)", "No"),
    ("CC(c1ccccc1)n1c2ccccc2c2c(N)ncnc21 (configuration not stated)", "No"),
    ("C=CCOC(=O)C1CCC(=O)N1C(=O)C(Cl)Cl (configuration not stated)", "No"),
    ("CC(C)c1ccc(/C(C(=O)O)=C(\\O)C(=O)O)cc1", "No"),
    ("O=C1C2=C(C3=NCCc4c[nH]c1c43)c1c(Br)cc(Br)cc1CCN2", "No"),
    ("CSC1=C(C(=O)Nc2ccc(Cl)cc2)C(N)=NC1=O", "No"),
    ("O=P(Nc1ccccc1)(Oc1ccccc1)N1CCN(c2ccccc2)CC1 (configuration not stated)", "No"),
    ("COc1ccc2c(c1)C1(C=N2)CCN(C(C)=O)CC1", "No"),
    ("CC(C)=C1CCC(CN2CCOCC2)C1=O (configuration not stated)", "No"),
    ("Clc1nc(Cl)nc(Nc2cccc3ccccc23)n1", "No"),
    ("COc1ccc(NC(=O)/C(=N\\NC(=O)C[n+]2ccccc2)c2c(O)c3ccc(O)cc3oc2=O)c([N+](=O)[O-])c1", "No"),
    ("C=C1[C@@H]2CCC3[C@]4(C)C(CC[C@@]5(C)C(=O)O[C@H](O)[C@@H]45)[C@H](O)[C@]3(C2)[C@H]1OC1OC(CO)C(O)C(O)C1O (some centres not stated)", "No"),
    ("CC1=C(C(N)=O)C(c2ccncc2)C(C#N)=C2SCC(=O)N12 (configuration not stated)", "No"),
    ("COc1ccccc1C1SCC(=O)N1c1ccc(-n2c(-c3ccccc3)nc3ccccc3c2=O)cc1 (configuration not stated)", "No"),
    ("COc1cc(C2(c3ncc[nH]3)SSSCC2O)ccc1O (configuration not stated)", "No"),
    ("COc1ccc(/N=N/C(=O)NC(Cc2ccccc2)C(=O)O)cc1 (configuration not stated)", "No"),
    ("C=CCn1c(N)c(C#N)c(C#N)c1-c1ccccc1", "No"),
    ("CC1(C)COC(/C=C/C2=NC(C)(C)CO2)=N1", "Yes"),
    ("C=CCN1CCC(c2cc(C(=O)OCC)[nH]c2-c2cc(C)no2)C1=O (configuration not stated)", "No"),
    ("CC(C)COC(=O)N1N=NC2C3OC(CC3=O)C21 (configuration not stated)", "No"),
    ("Cc1cc(N(CCC#N)S(=O)(=O)c2ccccc2)ccc1/C=C1N=C(/C=C/c2ccccc2)OC\\1=O", "No"),
    ("O=[N+]([O-])c1ccc2nc(Nc3ccccc3)c(Nc3ccccc3)nc2c1", "Yes"),
    ("CC1(C)CCC(C)(C)c2c1ccc(O)c2Cc1c(O)ccc2c1C(C)(C)CCC2(C)C", "No"),
    ("COc1cccc([C@@H]2CC(=O)c3cc4c(cc3N2)OCO4)c1", "No"),
    ("c1ccc(-c2cc(-c3cccs3)c(-c3cccs3)o2)cc1", "No"),
    ("O=C1NCN(c2ccccc2)C12CCN(CCCN1CCN(CCOC(c3ccc(F)cc3)c3ccc(F)cc3)CC1)CC2", "No"),
    ("CCCCCCCC/C=C\\CCCCCCCC(=O)OC[C@]1(CO)CCC(=O)O1", "No"),
    ("CC1=CC(=O)NP(=O)(C23CC4CC(CC(C4)C2)C3)N1 (configuration not stated)", "No"),
    ("COC(=O)C(Cc1ccc(Oc2cc(CC(NC(=O)c3ccccc3)C(=O)OC)ccc2OC)cc1)NC(=O)c1ccccc1 (configuration not stated)", "No"),
    ("CC(C)C12C=CC(C)(CC1)n1c(=O)c3cc4ccccc4cc3c(=O)n12 (configuration not stated)", "No"),
    ("O=C1C(Cl)=C(c2ccc([N+](=O)[O-])cc2)C(=O)c2c(O)cccc21", "No"),
]

###

tested on: NCI-H226; experiment: NCI tumour cell line growth inhibition, 48 h
Activity calls are given as the source filed them. No stated cut-off is given here; in the data, active = GI50 up to about 1.1 µM and inactive = higher.

# MOLECULE, GI50
records = [
    ("O=C1C(Cl)=C(c2ccc([N+](=O)[O-])cc2)C(=O)c2c(O)cccc21", "1.73 µM (inactive)"),
    ("CC1OC(OC2C(O[C@@H]3C[C@@H]4CC[C@@H]5[C@H](CC[C@]6(C)C7C(C[C@@H]56)O[C@]5(CC[C@@H](C)CO5)[C@H]7C)[C@@]4(C)C[C@H]3O)OC(CO)C(O)C2O)C(O)C(O)C1O (some centres undefined)", "2.84 µM (inactive)"),
    ("CC(C)=CCC/C(C)=C/CCC(C(=O)COCc1ccccc1)P1(=O)OC(C)(C)CN1C(C)(C)C (centres undefined)", "30.6 µM (inactive)"),
    ("COC(=O)C1=C(C(=O)OC)SC2(S1)C(C(=O)OC)=C(C(=O)OC)Sc1c2ssc1=O", "1.48 µM (inactive)"),
    ("COc1ccc(OC)c(C(Cc2ccnc3ccccc23)Cc2ccnc3ccccc23)c1", "9.57 µM (inactive)"),
    ("O=C(CC1(O)C(=O)Nc2c(Cl)cc(Cl)cc21)c1ccccc1 (centres undefined)", "> 100 µM (inactive)"),
    ("CC(C)(C)n1c(=O)n(-c2ccccc2)n(C(C)(C)C)c1=O", "> 100 µM (inactive)"),
    ("Cc1ccc(NC(=O)CC(=O)N2N=C(c3ccccc3)C(/N=N/c3ccc(S(=O)(=O)CCOS(=O)(=O)O)cc3)C2=O)cc1 (centres undefined)", "> 100 µM (inactive)"),
    ("CSC1=C(C(=O)Nc2ccc(Cl)cc2)C(N)=NC1=O", "> 100 µM (inactive)"),
    ("COc1ccc(C(=O)Cn2c(C(C)=O)nc3ccccc32)cc1", "> 74 µM (inactive)"),
    ("Clc1nc(Cl)nc(Nc2cccc3ccccc23)n1", "> 10 µM (inactive)"),
    ("COC(=O)c1c(OC(=O)c2ccccc2)noc1CC(=O)OC1C=CCCC1 (centres undefined)", "> 100 µM (inactive)"),
    ("CC(C)=CCCC(C)C1=C(O)C(=O)C(C)=CC1=O (centres undefined)", "20.8 µM (inactive)"),
    ("CC(C)(Oc1ccc(Cl)cc1)C(=O)N(C(=O)N1CCN(c2ccccc2)CC1)c1ccccc1", "8.09 µM (inactive)"),
    ("COC(=O)[C@H](CC(C)C)NC(=O)[C@H](Cc1ccccc1)N1CC2C=CC1C2 (some centres undefined)", "> 100 µM (inactive)"),
    ("CNc1ccc(Cl)cc1S(=O)(=O)c1ccccc1[N+](=O)[O-]", "> 100 µM (inactive)"),
    ("CC(=O)NNc1nc(C)c(C(=O)NNC(=O)C(=O)Nc2ccc(C)cc2[N+](=O)[O-])s1", "> 100 µM (inactive)"),
    ("CCc1ccc2oc(=O)ccc2c1", "> 100 µM (inactive)"),
    ("C=CCN1CCC(c2cc(C(=O)OCC)[nH]c2-c2cc(C)no2)C1=O (centres undefined)", "> 100 µM (inactive)"),
    ("O=C(O)[C@@H]1C2CC([C@@H]1C(=O)O)[C@H](N1C(=O)CCC1=O)[C@@H]2Br (some centres undefined)", "> 100 µM (inactive)"),
    ("O=C1Nc2ccccc2C(=O)/C1=C/NC(=S)NCc1ccccc1", "> 100 µM (inactive)"),
    ("CCCCCCCC/C=C\\CCCCCCCC(=O)OC[C@]1(CO)CCC(=O)O1", "> 100 µM (inactive)"),
    ("CC(C)COC(=O)N1N=NC2C3OC(CC3=O)C21 (centres undefined)", "> 100 µM (inactive)"),
    ("CC1(C)CC2=NC(SSC3=C(C#N)C(c4ccc(Br)cc4)C4=C(O)CC(C)(C)CC4=N3)=C(C#N)C(c3ccc(Br)cc3)C2=C(O)C1 (centres undefined)", "> 100 µM (inactive)"),
    ("O=C(CCc1ccccc1)On1c(-c2ccccc2)nc2ccccc2c1=S", "5.62 µM (inactive)"),
    ("CCOC(=O)N/N=C/C1=NN(C(=O)OCC)[S+]([O-])C1C (centres undefined)", "> 100 µM (inactive)"),
    ("CCOC(=O)C1CCC(=O)N1C(=O)c1ccccc1Cl (centres undefined)", "> 100 µM (inactive)"),
    ("O=S(=O)(c1ccccc1)n1c(C(O)c2ccccc2)cc2ccccc21 (centres undefined)", "13.1 µM (inactive)"),
    ("Clc1ccc(Cl)c(/N=N\\c2cc3c4c(c2)CCN4CCC3)c1", "> 10 µM (inactive)"),
    ("COc1cc(C(=O)N(C(=O)N2CCCCC2)c2ccccc2)cc(OC)c1OC", "> 100 µM (inactive)"),
    ("O=[N+]([O-])c1ccc(/C=N/n2c(S)nnc2CCc2nnc(S)n2/N=C/c2ccc([N+](=O)[O-])o2)o1", "> 100 µM (inactive)"),
    ("CCn1c2c(c3ccccc31)[C@@H](c1ccc(Cl)cc1)CC1C(=O)N(c3ccccc3)C(=O)C21 (some centres undefined)", "45.6 µM (inactive)"),
    ("C[C@H](CCC(=O)O[C@@H]1CC[C@@]2(C)C(CC[C@H]3[C@@H]4CC[C@H]([C@H](C)CCc5nc6ccccc6[nH]5)[C@@]4(C)CC[C@@H]32)C1)[C@H]1CC[C@H]2[C@@H]3CCC4C[C@H](O)CC[C@]4(C)[C@H]3CC[C@]12C (some centres undefined)", "> 100 µM (inactive)"),
    ("COC(=O)c1ccccc1CC(Cc1ccc2c(c1)CCC2)C(=O)OC (centres undefined)", "57.5 µM (inactive)"),
    ("O=C(CCCN1CCC(Nc2ccc(F)cc2)(c2nnnn2C2CCCCC2)CC1)c1ccc(F)cc1", "17.2 µM (inactive)"),
    ("Cc1cccc2c1C(=O)OC2(C)c1cccc2ccccc12 (centres undefined)", "26.5 µM (inactive)"),
    ("NCCNCC1CCNCC1", "> 100 µM (inactive)"),
    ("C=CCNC1=C(C(=O)OCC)C(=O)CO1", "> 100 µM (inactive)"),
    ("Cc1c2cc[n+](C)c(C)c2cc2c1[nH]c1ccccc12", "1.69 µM (inactive)"),
]
